Test system: UGT
Assay: Microsomal stability in mouse liver microsomes assessed as UGT-mediated metabolism by measuring compound remaining at 5 uM and measured for 30 mins in presence of UDPGA by UPLC-MS/MS analysis (reference value: 100%)
Assay type: ADME
Settings: read-out: Stability

- compound: "O=C1C2=C(C(=O)c3c1cnc1ccccc31)C1CCC2C1 (stereo unspecified)"
  remaining at 0.5 h, 5 µM [%]: 86
- compound: "O=C1C2=C(C(=O)c3c1cnc1ccc(C(F)(F)F)cc31)C1CCC2C1 (stereo unspecified)"
  remaining at 0.5 h, 5 µM [%]: 81
- compound: "O=C1C2=C(C(=O)c3c1cnc1c(F)cccc31)C1CCC2C1 (stereo unspecified)"
  remaining at 0.5 h, 5 µM [%]: 70
- compound: "O=C1C2=C(C(=O)c3c1cnc1cc(C(F)(F)F)ccc31)C1CCC2C1 (stereo unspecified)"
  remaining at 0.5 h, 5 µM [%]: 70
- compound: "O=C1C2=C(C(=O)c3c1cnc1cc(F)ccc31)C1CCC2C1 (stereo unspecified)"
  remaining at 0.5 h, 5 µM [%]: 88
- compound: "O=C1C2=C(C(=O)c3c1cnc1ccc(F)cc31)C1CCC2C1 (stereo unspecified)"
  remaining at 0.5 h, 5 µM [%]: 92

* * *

Recorded selectivity ratio for the following compounds
Assay: Selectivity index, ratio of […] for cytotoxicity against mouse J774A.1 cells
Assay type: toxicity, cell-based
Conditions: read-out: Selectivity Index

- compound: "O=C1C2=C(C(=O)c3c1cnc1c(F)cccc31)C1CCC2C1 (stereo not given)"
  selectivity ratio: 19.3
- compound: "O=C1C2=C(C(=O)c3c1cnc1cc(C(F)(F)F)ccc31)C1CCC2C1 (stereo not given)"
  selectivity ratio: 15.4
- compound: "O=C1C2=C(C(=O)c3c1cnc1ccccc31)C1CCC2C1 (stereo not given)"
  selectivity ratio: 10.2
- compound: "O=C1C2=C(C(=O)c3c1cnc1ccc(C(F)(F)F)cc31)C1CCC2C1 (stereo not given)"
  selectivity ratio: 11.8
- compound: "O=C1C2=C(C(=O)c3c1cnc1cc(F)ccc31)C1CCC2C1 (stereo not given)"
  selectivity ratio: 3.44

* * *

Recorded remaining at 0.25 h, 5 µM for the following compounds
Tested on: UGT
Assay: Microsomal stability in mouse liver microsomes assessed as UGT-mediated metabolism by measuring compound remaining at 5 uM and measured for 15 mins in presence of UDPGA by UPLC-MS/MS analysis (reference value: 100%)
Assay type: ADME
Conditions: read-out: Stability
endpoint: remaining at 0.25 h, 5 µM (%)

- compound: "O=C1C2=C(C(=O)c3c1cnc1c(F)cccc31)C1CCC2C1 (stereo unspecified)"
  system-name: "UGT"
  endpoint: "remaining at 0.25 h, 5 µM"
  result-number: 77
- compound: "O=C1C2=C(C(=O)c3c1cnc1ccc(C(F)(F)F)cc31)C1CCC2C1 (stereo unspecified)"
  system-name: "UGT"
  endpoint: "remaining at 0.25 h, 5 µM"
  result-number: 87
- compound: "O=C1C2=C(C(=O)c3c1cnc1cc(C(F)(F)F)ccc31)C1CCC2C1 (stereo unspecified)"
  system-name: "UGT"
  endpoint: "remaining at 0.25 h, 5 µM"
  result-number: 62
- compound: "O=C1C2=C(C(=O)c3c1cnc1ccc(F)cc31)C1CCC2C1 (stereo unspecified)"
  system-name: "UGT"
  endpoint: "remaining at 0.25 h, 5 µM"
  result-number: 96
- compound: "O=C1C2=C(C(=O)c3c1cnc1ccccc31)C1CCC2C1 (stereo unspecified)"
  system-name: "UGT"
  endpoint: "remaining at 0.25 h, 5 µM"
  result-number: 69
- compound: "O=C1C2=C(C(=O)c3c1cnc1cc(F)ccc31)C1CCC2C1 (stereo unspecified)"
  system-name: "UGT"
  endpoint: "remaining at 0.25 h, 5 µM"
  result-number: 89

* * *

Test system: Enterococcus faecium
Experiment: Antibacterial activity against Enterococcus faecium ATCC 19434 incubated for 24 hrs by resazurin dye based fluorimetric assay
Format: functional, organism-based
Details: ATCC 19434, 24 h
pIC50: −log10 of the molar value.
endpoint: pIC50

- compound: "O=C1C2=C(C(=O)c3c1cnc1ccccc31)C1CCC2C1 (configuration not stated)"
  result: "4.19 to 4.49"
- compound: "CN[C@H](CC(C)C)C(=O)N[C@H]1C(=O)N[C@@H](CC(N)=O)C(=O)N[C@H]2C(=O)N[C@H]3C(=O)N[C@H](C(=O)N[C@H](C(=O)O)c4cc(O)cc(O)c4-c4cc3ccc4O)[C@H](O)c3ccc(c(Cl)c3)Oc3cc2cc(c3O[C@@H]2O[C@H](CO)[C@@H](O)[C@H](O)[C@H]2O[C@H]2C[C@](C)(N)[C@H](O)[C@H](C)O2)Oc2ccc(cc2Cl)[C@H]1O"
  result: "< 6.30"
- compound: "O=C1C2=C(C(=O)c3c1cnc1cc(C(F)(F)F)ccc31)C1CCC2C1 (configuration not stated)"
  result: "< 4.19"
- compound: "O=C1C2=C(C(=O)c3c1cnc1ccc(C(F)(F)F)cc31)C1CCC2C1 (configuration not stated)"
  result: "< 4.19"
- compound: "O=C1C2=C(C(=O)c3c1cnc1ccc(F)cc31)C1CCC2C1 (configuration not stated)"
  result: "< 4.19"
- compound: "O=C1C2=C(C(=O)c3c1cnc1cc(F)ccc31)C1CCC2C1 (configuration not stated)"
  result: "< 4.19"
- compound: "O=C1C2=C(C(=O)c3c1cnc1c(F)cccc31)C1CCC2C1 (configuration not stated)"
  result: "< 4.19"

* * *

System: Mycobacterium tuberculosis
Assay: Antimycobacterial activity against Mycobacterium tuberculosis H37Ra lux incubated for 7 days by luminometric assay
Assay type: functional, organism-based
Conditions: 168 h
Define the label as 1.0 when IC50 is strictly less than 2000 nM and as 0.0 in all remaining cases.

- compound: "O=C1C2=C(C(=O)c3c1cnc1ccccc31)C1CCC2C1 (configuration not stated)"
  label: 1.0
- compound: "O=C1C2=C(C(=O)c3c1cnc1cc(F)ccc31)C1CCC2C1 (configuration not stated)"
  label: 1.0
- compound: "O=C1C2=C(C(=O)c3c1cnc1ccc(C(F)(F)F)cc31)C1CCC2C1 (configuration not stated)"
  label: 0.0
- compound: "O=C1C2=C(C(=O)c3c1cnc1cc(C(F)(F)F)ccc31)C1CCC2C1 (configuration not stated)"
  label: 0.0
- compound: "O=C1C2=C(C(=O)c3c1cnc1c(F)cccc31)C1CCC2C1 (configuration not stated)"
  label: 1.0
- compound: "NNC(=O)c1ccncc1"
  label: 1.0
- compound: "O=C1C2=C(C(=O)c3c1cnc1ccc(F)cc31)C1CCC2C1 (configuration not stated)"
  label: 0.0

* * *

Molecular target: UGT (Homo sapiens, UniProt O60656+O75310+O75795+P06133+P0DTE4+P0DTE5+P16662+P19224+P22309+P22310+P35503+P35504+P36537+P54855+Q6UWM9+Q9BY64+Q9HAW7+Q9HAW8+Q9HAW9)
Experiment: Microsomal stability in human liver microsomes assessed as UGT-mediated metabolism by measuring compound remaining at 5 uM and measured for 60 mins in presence of UDPGA by UPLC-MS/MS analysis (reference value: 100%)
Type: ADME
Conditions: read-out: Stability
Recorded remaining at 1 h, 5 µM for the following compounds
endpoint: remaining at 1 h, 5 µM (%)

- compound: "O=C1C2=C(C(=O)c3c1cnc1ccccc31)C1CCC2C1 (configuration not stated)"
  units-label: "%"
  result-number: 68
- compound: "O=C1C2=C(C(=O)c3c1cnc1ccc(C(F)(F)F)cc31)C1CCC2C1 (configuration not stated)"
  units-label: "%"
  result-number: 69
- compound: "O=C1C2=C(C(=O)c3c1cnc1cc(F)ccc31)C1CCC2C1 (configuration not stated)"
  units-label: "%"
  result-number: 60
- compound: "O=C(O)Cc1ccccc1Nc1c(Cl)cccc1Cl"
  units-label: "%"
  result-number: 13
- compound: "O=C1C2=C(C(=O)c3c1cnc1cc(C(F)(F)F)ccc31)C1CCC2C1 (configuration not stated)"
  units-label: "%"
  result-number: 63
- compound: "O=C1C2=C(C(=O)c3c1cnc1ccc(F)cc31)C1CCC2C1 (configuration not stated)"
  units-label: "%"
  result-number: 64
- compound: "O=C1C2=C(C(=O)c3c1cnc1c(F)cccc31)C1CCC2C1 (configuration not stated)"
  units-label: "%"
  result-number: 65

* * *

Recorded remaining at 1 h, 5 µM for the following compounds
Tested on: UGT
Assay: Microsomal stability in mouse liver microsomes assessed as UGT-mediated metabolism by measuring compound remaining at 5 uM and measured for 60 mins in presence of UDPGA by UPLC-MS/MS analysis (reference value: 100%)
Type: ADME
Conditions: read-out: Stability

- compound: "O=C1C2=C(C(=O)c3c1cnc1ccc(C(F)(F)F)cc31)C1CCC2C1 (stereo not drawn)"
  remaining at 1 h, 5 µM (%): 78
- compound: "O=C1C2=C(C(=O)c3c1cnc1c(F)cccc31)C1CCC2C1 (stereo not drawn)"
  remaining at 1 h, 5 µM (%): 61
- compound: "O=C1C2=C(C(=O)c3c1cnc1cc(C(F)(F)F)ccc31)C1CCC2C1 (stereo not drawn)"
  remaining at 1 h, 5 µM (%): 51
